Tested on: ticks
Experiment: tick repellency test (petri dish) with filter paper heated at 150° C.
Format: in vivo
Conditions: 1 g/m^2, 150° C. 0 min (not heated), 24 hours
Property: Repellency rate (%)
# value in %; strip the unit string

Solved entries:
compound="CC(=O)CCC=C(C)CCC=C(C)CCC=C(C)C (mixture of isomers) [Mixed farnesyl acetone isomers, farnesyl acetone]" assay_result=90.60
compound="COc1cc(O)c(C(C)=O)c(OC)c1 [Xanthoxyline]" assay_result=92.40
compound="CC(=O)CC/C=C(\\C)CC/C=C(\\C)CCC=C(C)C [trans-Farnesyl acetone]" assay_result=94.30

Here is another compound to look at.
### Prompt Name the reported Repellency rate value associated with the compound CC(=O)c1ccc(O)cc1O [2,4-DHAP, 2′,4′-dihydroxyacetophenone]
### Response 39.80

* * *

Experiment: oxidative modification of sample on filter paper, 40° C. for a week, measured by chromatography
Assay type: physicochemical
Details: filter paper 1 g/m^2, sealed flask, 40° C., 150 rpm, a week
Consider the following molecules and their measured After 1 week (area) readings.
Write down the value, and be sure its unit follows.

Solved entries:
molecule="CC(=O)CC/C=C(\\C)CC/C=C(\\C)CCC=C(C)C [trans-Farnesyl acetone]" assay_result="3246218 area"
molecule="CC(=O)CCC=C(C)CCC=C(C)CCC=C(C)C (mixture of isomers) [Mixed farnesyl acetone isomers, farnesyl acetone]" assay_result="1038335 area"
molecule="CC(=O)c1ccc(O)cc1O [2,4-DHAP, 2′,4′-dihydroxyacetophenone]" assay_result="11130386 area"

Here is another molecule to look at.
### Prompt Name the reported After 1 week (area) value associated with the molecule COc1cc(O)c(C(C)=O)c(OC)c1
### Response 5617299 area

* * *

Assay: oxidative modification of sample on filter paper, 40° C. for a week, measured by chromatography
Assay type: physicochemical
Settings: filter paper 1 g/m^2, measured on the day
Property: Day of experiment (area)
# value in area; strip the unit string

### Prompt Name the reported Day of experiment (area) value associated with the compound COc1cc(O)c(C(C)=O)c(OC)c1 [Xanthoxyline]
### Response 5756751

### Prompt Name the reported Day of experiment (area) value associated with the compound CC(=O)c1ccc(O)cc1O [2,4-DHAP, 2′,4′-dihydroxyacetophenone]
### Response 12027833

### Prompt Name the reported Day of experiment (area) value associated with the compound CC(=O)CC/C=C(\C)CC/C=C(\C)CCC=C(C)C [trans-Farnesyl acetone]
### Response 4022168

### Prompt Name the reported Day of experiment (area) value associated with the compound CC(=O)CCC=C(C)CCC=C(C)CCC=C(C)C (mixture of isomers) [Mixed farnesyl acetone isomers, farnesyl acetone]
### Response 3145831
